Numbers sourced from paper PMC6210068.

target: hDAT (Homo sapiens, UniProt Q01959); assay: Radioligand binding at DAT; conditions: 10 μM; [3H]WIN35428; negative = enhanced radioligand binding
Sequence (Q01959 whole entry): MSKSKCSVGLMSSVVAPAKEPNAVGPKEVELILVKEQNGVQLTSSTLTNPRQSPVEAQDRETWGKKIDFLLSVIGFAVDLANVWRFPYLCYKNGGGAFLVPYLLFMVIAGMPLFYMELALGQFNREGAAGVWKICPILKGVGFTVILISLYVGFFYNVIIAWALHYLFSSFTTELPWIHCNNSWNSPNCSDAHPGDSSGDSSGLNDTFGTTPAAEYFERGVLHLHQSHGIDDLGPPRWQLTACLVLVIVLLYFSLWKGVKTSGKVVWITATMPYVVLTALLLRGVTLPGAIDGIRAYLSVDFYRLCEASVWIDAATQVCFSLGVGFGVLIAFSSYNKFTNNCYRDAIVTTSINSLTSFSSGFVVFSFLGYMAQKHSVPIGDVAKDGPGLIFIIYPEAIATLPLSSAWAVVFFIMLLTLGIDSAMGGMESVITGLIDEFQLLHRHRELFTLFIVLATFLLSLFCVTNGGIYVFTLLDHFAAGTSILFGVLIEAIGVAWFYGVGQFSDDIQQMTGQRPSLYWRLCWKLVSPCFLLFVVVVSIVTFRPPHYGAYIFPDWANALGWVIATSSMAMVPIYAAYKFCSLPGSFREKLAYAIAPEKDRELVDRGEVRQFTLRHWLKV
measured metric: DAT, inhibition, % of control at 10 μM

INSERT INTO measurements (smi, measured_metric, endpoint_result) VALUES
  ('O[C@@H]1[C@H](O)[C@@H]2C[C@@H]2[C@H]1n1cnc2c(NCC(c3ccccc3)c3ccccc3)nc(C#Cc3ccccc3)nc21', 'DAT, inhibition, % of control at 10 μM', '17%'),
  ('CNc1nc(C#Cc2ccc(Cl)s2)nc2c1ncn2[C@H]1[C@H](O)[C@H](O)[C@]2(C(=O)OCCc3ccccc3)C[C@H]12', 'DAT, inhibition, % of control at 10 μM', '<20%'),
  ('O[C@@H]1[C@H](O)[C@@H]2C[C@@H]2[C@H]1n1cnc2c(NCc3cccc(Cl)c3)ncnc21', 'DAT, inhibition, % of control at 10 μM', '–2%'),
  ('CNc1nc(C#Cc2ccccc2)nc2c1ncn2[C@H]1[C@H](O)[C@H](O)[C@@H]2C[C@@H]21', 'DAT, inhibition, % of control at 10 μM', '–213%'),
  ('CNc1nc(C#Cc2ccccc2)nc2c1ccn2[C@H]1[C@H](O)[C@H](O)[C@@H]2C[C@@H]21', 'DAT, inhibition, % of control at 10 μM', '−58%');

Exercise: Need DAT, inhibition, % of control at 10 μM, item `CCOC(=O)[C@@]12C[C@@H]1[C@@H](n1cnc3c(NC)nc(C#Cc4ccc(Cl)s4)cc31)[C@H](O)[C@@H]2O`
Solution: –354%

Exercise: For the compound shown here, `CNc1nc(C#Cc2ccc(Cl)s2)nc2c1ncn2[C@H]1[C@H](O)[C@H](O)[C@]2(C(=O)NCCN)C[C@H]12` , give the reported DAT, inhibition, % of control at 10 μM.
Solution: –136%

###

biological target: MOR (Homo sapiens); test: β-arrestin-recruitment TANGO assay at MOR; format: cell-based; conditions: 10 μM; vs standard agonist = 100%
Sequence (P35372 whole entry): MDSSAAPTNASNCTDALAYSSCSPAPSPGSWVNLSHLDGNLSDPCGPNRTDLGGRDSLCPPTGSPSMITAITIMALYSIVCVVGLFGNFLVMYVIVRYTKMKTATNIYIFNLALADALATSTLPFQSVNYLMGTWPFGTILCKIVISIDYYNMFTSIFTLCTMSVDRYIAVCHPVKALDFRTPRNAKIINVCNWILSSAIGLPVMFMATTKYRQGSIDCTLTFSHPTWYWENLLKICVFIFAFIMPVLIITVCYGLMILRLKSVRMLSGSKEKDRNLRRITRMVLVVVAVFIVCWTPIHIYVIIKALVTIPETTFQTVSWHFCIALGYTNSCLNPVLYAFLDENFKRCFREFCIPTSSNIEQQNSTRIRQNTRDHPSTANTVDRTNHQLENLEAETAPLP
measured metric: MOR Ag (%)

Below, 3 compounds whose answers are already recorded.
INSERT INTO measurements (smi, endpoint_result) VALUES
  ('CCOC(=O)[C@@]12C[C@@H]1[C@@H](n1ccc3c(NC)nc(C#Cc4ccc(Br)s4)nc31)[C@H](O)[C@@H]2O', 1.6),
  ('CCOC(=O)[C@@]12C[C@@H]1[C@@H](n1ccc3c(NC)nc(C#Cc4ccc(Cl)s4)nc31)[C@H](O)[C@@H]2O', 0.4),
  ('CNc1nc(C#Cc2ccc(Cl)s2)nc2c1ncn2[C@H]1[C@H](O)[C@H](O)[C@]2(C(=O)OCc3ccccc3)C[C@H]12', 3.1);

P = CCCCC(=O)[C@@]12C[C@@H]1[C@@H](n1ccc3c(NC)nc(C#Cc4ccc(Cl)s4)nc31)[C@H](O)[C@@H]2O
Q = CCOC(=O)[C@@]12C[C@@H]1[C@@H](n1cnc3c(NC)nc(C#Cc4ccc(Cl)s4)nc31)[C@H](O)[C@@H]2O
Exercise: Problem: Given the entries P and Q , determine which has the lower reported MOR Ag (%). Response format: the label of the selected entry.
Solution: Q
(Q: 0.3%, P: 6.0%)

###

pKi: −log10 of the molar value.
Below are molecules with their pKi as measured on hNOP (Homo sapiens, UniProt P41146).
Sequence (P41146 whole entry): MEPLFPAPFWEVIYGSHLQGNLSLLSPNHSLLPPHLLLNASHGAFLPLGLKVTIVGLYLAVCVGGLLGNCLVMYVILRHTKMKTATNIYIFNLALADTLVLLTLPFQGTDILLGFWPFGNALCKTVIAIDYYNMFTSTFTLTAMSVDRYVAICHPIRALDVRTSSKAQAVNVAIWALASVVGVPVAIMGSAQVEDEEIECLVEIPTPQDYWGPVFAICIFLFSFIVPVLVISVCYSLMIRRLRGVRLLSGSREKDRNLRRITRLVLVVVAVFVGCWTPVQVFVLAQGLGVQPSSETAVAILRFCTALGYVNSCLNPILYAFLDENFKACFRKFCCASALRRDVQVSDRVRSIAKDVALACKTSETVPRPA
measured metric: pKi

INSERT INTO measurements (smi, endpoint_result) VALUES
  ('CCOC(=O)[C@@]12C[C@@H]1[C@@H](n1ccc3c(NC)nc(C#Cc4ccc(Cl)s4)nc31)[C@H](O)[C@@H]2O', 5.43);

1 = CCOC(=O)[C@@]12C[C@@H]1[C@@H](n1ccc3c(NC)nc(C#Cc4ccc(Br)s4)nc31)[C@H](O)[C@@H]2O
2 = CNC(=O)[C@@]12C[C@@H]1[C@@H](n1cnc3c(NCc4cccc(Cl)c4)nc(C#Cc4ccc(F)c(F)c4)nc31)[C@H](O)[C@@H]2O
Exercise: Sort 1 and 2 by pKi descending and give the first. Identify your selection by its label.
Solution: 1
(1: 5.56, 2: 5.34)
